# Tested on: corn (Zea mays)
# Assay Name: Test A pre-/postemergence plant response
# Type: in vivo
# Assay Setup: Preemergence, 31 g ai/ha; 0 to 100 scale, 0 is no effect, 100 is complete control
The following compounds are listed with their measured Plant response rating, Corn values.
The response must contain the number and no unit.

Solved entries (count: 3):
Item: CCc1cc(-c2ccc(Cl)s2)nn1-c1c(O)cnn(C)c1=O [Compound 63] | Plant response rating, Corn: 0

Item: CCc1cc(-c2ccc(Cl)cc2)nn1-c1c(OC(=O)OC(C)C)cnn(C)c1=O [Compound 41] | Plant response rating, Corn: 30

Item: Cc1cc(-c2ccc(Cl)cc2)nn1-c1c(OC(=S)N(C)C)cnn(C)c1=O [Compound 69] | Plant response rating, Corn: 20

Next:
Item: Cc1cc(-c2ccc(Cl)cc2)nn1-c1c(OC(=O)OCC(C)C)cnn(C)c1=O [Compound 57] | Plant response rating, Corn: 0

Item: CCc1cc(-c2ccc(Br)cc2)nn1-c1c(O)cnn(C)c1=O [Compound 61] | Plant response rating, Corn: 70

###

# Test system: velvetleaf (Abutilon theophrasti)
# Assay Name: Test B pre-/postemergence plant response
# Assay type: in vivo
# Assay Setup: Preemergence, 62 g ai/ha; scale 0 to 100
Reported Endpoint: Plant response rating, Velvetleaf
The response must contain the number and no unit.

Solved entries (count: 3):
Item: "Cc1cc(-c2ccc(C(F)(F)F)cc2)nn1-c1c(OC(=O)C(C)(C)C)cnn(C)c1=O" | Plant response rating, Velvetleaf: 0

Item: "Cn1ncc(O)c(-c2nn(-c3ccc(Cl)cc3)cc2Br)c1=O" | Plant response rating, Velvetleaf: 0

Item: "CCc1cc(-c2ccc(C(F)(F)F)cc2)nn1-c1c(OS(C)(=O)=O)cnn(C)c1=O" | Plant response rating, Velvetleaf: 0

Query compound follows.
Item: "Cc1cc(-c2ccc(Cl)cc2)nn1-c1c(OS(C)(=O)=O)cnn(C)c1=O" | Plant response rating, Velvetleaf: 0

###

# Tested on: woolly cupgrass (Eriochloa villosa)
# Assay Name: Test B pre-/postemergence plant response
# Type: in vivo
# Assay Setup: Preemergence, 16 g ai/ha; scale 0 to 100 (0 no effect, 100 complete control)
The following compounds are listed with their measured Plant response rating, Cupgrass, Woolly values.
The response must contain the number and no unit.

Item: "Cc1cc(-c2ccc(Cl)cc2)nn1-c1c(OC(=O)c2ccccc2)cnn(C)c1=O" | Plant response rating, Cupgrass, Woolly: 0

Item: "CCc1cc(-c2ccc(C(F)(F)F)cc2)nn1-c1c(OS(C)(=O)=O)cnn(C)c1=O" | Plant response rating, Cupgrass, Woolly: 85

Item: "Cc1cc(-c2ccc(Cl)cc2)nn1-c1c(OS(C)(=O)=O)cnn(C)c1=O" | Plant response rating, Cupgrass, Woolly: 85

Item: "Cc1cc(-c2ccc(Cl)cc2)nn1-c1c(OC(=O)C(C)C)cnn(C)c1=O" | Plant response rating, Cupgrass, Woolly: 90

Query compound follows.
Item: "Cn1ncc(O)c(-c2nn(-c3ccc(Cl)cc3)cc2Cl)c1=O" | Plant response rating, Cupgrass, Woolly: 30

###

# Tested on: green foxtail (Setaria viridis)
# Assay Name: Test B pre-/postemergence plant response
# Type: in vivo
# Assay Setup: 8 g ai/ha, postemergence; 0-100 scale
The following compounds are listed with their measured Foxtail, Green plant response rating values.
The response must contain the number and no unit.

Item: Cn1ncc(O)c(-c2nn(-c3ccc(Cl)cc3)cc2Cl)c1=O [Compound 28] | Foxtail, Green plant response rating: 60

Next:
Item: CCc1cc(-c2ccc(C(F)(F)F)cc2)nn1-c1c(O)cnn(CC)c1=O [Compound 67] | Foxtail, Green plant response rating: 65

Item: Cc1nn(C)c(=O)c(-n2nc(-c3ccc(C(F)(F)F)cc3)cc2C)c1O [Compound 75] | Foxtail, Green plant response rating: 0

Item: Cc1cc(-c2ccc(Cl)cc2)nn1-c1c(OC(=O)C(C)C)cnn(C)c1=O [Compound 34] | Foxtail, Green plant response rating: 60

Item: CCc1cc(-c2ccc(Cl)cc2)nn1-c1c(OC(=O)OC(C)C)cnn(C)c1=O [Compound 41] | Foxtail, Green plant response rating: 85

Item: Cc1cc(-c2ccc(Cl)cc2)nn1-c1c(OC(=O)c2ccccc2)cnn(C)c1=O [Compound 48] | Foxtail, Green plant response rating: 70

###

The following molecules are listed with their measured Foxtail, Giant plant response rating values.
# Tested on: giant foxtail (Setaria faberii)
# Assay Name: Test B pre-/postemergence plant response
# Assay type: in vivo
# Assay Setup: Preemergence; 16 g ai/ha; scale 0 to 100
The response must contain the number and no unit.

Item: "CCc1cc(-c2ccc(C(F)(F)F)cc2)nn1-c1c(O)cnn(CC)c1=O" | Foxtail, Giant plant response rating: 0

Item: "Cc1cc(-c2ccc(Cl)cc2)nn1-c1c(OS(=O)(=O)c2ccccc2[N+](=O)[O-])cnn(C)c1=O" | Foxtail, Giant plant response rating: 100

Item: "Cc1cc(-c2ccc(Br)cc2)nn1-c1c(O)cn[nH]c1=O" | Foxtail, Giant plant response rating: 100

Query molecule follows.
Item: "C#CCOC(=O)Oc1cnn(C)c(=O)c1-n1nc(-c2ccc(Cl)cc2)cc1C" | Foxtail, Giant plant response rating: 95

###

# System: bermudagrass (Cynodon dactylon)
# Assay Name: Test B pre-/postemergence plant response
# Format: in vivo
# Assay Setup: Preemergence, 8 g ai/ha; scale 0 to 100 (0 no effect, 100 complete control)
The following molecules are listed with their measured Bermudagrass plant response rating values.
The response must contain the number and no unit.

Item: "CCc1cc(-c2ccc(C(F)(F)F)cc2)nn1-c1c(O)cnn(CC)c1=O" | Bermudagrass plant response rating: 0

Item: "Cc1cc(-c2ccc(Cl)cc2)nn1-c1c(OC(=O)C(C)C)cnn(C)c1=O" | Bermudagrass plant response rating: 50

Item: "Cc1nn(C)c(=O)c(-n2nc(-c3ccc(Br)cc3)cc2C)c1O" | Bermudagrass plant response rating: 0

Item: "Cc1cc(-c2ccc(Cl)cc2)nn1-c1c(OC(=O)c2ccccc2)cnn(C)c1=O" | Bermudagrass plant response rating: 0

Item: "Cc1cc(-c2ccc(Cl)cc2)nn1-c1c(OS(=O)(=O)c2ccccc2[N+](=O)[O-])cnn(C)c1=O" | Bermudagrass plant response rating: 60

Next:
Item: "CCc1cc(-c2ccc(Br)cc2)nn1-c1c(O)cnn(C)c1=O" | Bermudagrass plant response rating: 55

Item: "CCc1cc(-c2ccc(Cl)cc2)nn1-c1c(OC(=O)C(C)(C)C)cnn(C)c1=O" | Bermudagrass plant response rating: 0

Item: "CCc1cc(-c2ccc(F)cc2)nn1-c1c(O)cnn(C)c1=O" | Bermudagrass plant response rating: 0

Item: "Cc1cc(-c2ccc(Cl)cc2)nn1-c1c(OS(C)(=O)=O)cnn(C)c1=O" | Bermudagrass plant response rating: 98

###

The following compounds are listed with their measured Plant response rating, Barley, Winter values.
# System: winter barley (Hordeum vulgare)
# Assay Name: Test C pre-/postemergence plant response
# Type: in vivo
# Assay Setup: Preemergence, 62 g ai/ha; scale 0 to 100, 0 no effect, 100 complete control
The response must contain the number and no unit.

Solved entries (count: 4):
Item: Cc1cc(-c2ccc(Cl)cc2)nn1-c1c(OC(=O)OCC(C)C)cnn(C)c1=O [Compound 57] | Plant response rating, Barley, Winter: 60

Item: Cc1cn(-c2ccc(Cl)cc2)nc1-c1c(O)cnn(C)c1=O [Compound 30] | Plant response rating, Barley, Winter: 15

Item: Cn1ncc(O)c(-c2nn(-c3ccc(Cl)cc3)cc2Cl)c1=O [Compound 28] | Plant response rating, Barley, Winter: 40

Item: CCc1cc(-c2ccc(C(F)(F)F)cc2)nn1-c1c(O)cnn(C)c1=O [Compound 11] | Plant response rating, Barley, Winter: 95

Query compound follows.
Item: Cc1cc(-c2ccc(Cl)cc2)nn1-c1c(OC(=O)c2ccccc2)cnn(C)c1=O [Compound 48] | Plant response rating, Barley, Winter: 70

###

# Test system: wheat (Triticum aestivum)
# Assay Name: Test A pre-/postemergence plant response
# Format: in vivo
# Assay Setup: Preemergence, 31 g ai/ha; 0 to 100 scale, 0 is no effect, 100 is complete control
Reported Endpoint: Plant response rating, Wheat
The response must contain the number and no unit.

Solved entries (count: 3):
Item: "Cc1cc(-c2ccc(Cl)cc2)nn1-c1c(OC(=O)OCC(C)C)cnn(C)c1=O" | Plant response rating, Wheat: 0

Item: "COCc1cc(-c2ccc(Br)cc2)nn1-c1c(O)cnn(C)c1=O" | Plant response rating, Wheat: 0

Item: "CCc1cc(-c2ccc(C(F)(F)F)cc2)nn1-c1c(OC(=O)C2CCCCC2)cnn(C)c1=O" | Plant response rating, Wheat: 80

Next:
Item: "Cc1cc(-c2ccc(Cl)cc2)nn1-c1c(OC(=O)C(C)C)cnn(C)c1=O" | Plant response rating, Wheat: 30

Item: "CCc1cc(-c2ccc(Cl)cc2)nn1-c1c(OC(=O)C(C)(C)C)cnn(C)c1=O" | Plant response rating, Wheat: 50

Cited source for all entries: patent US20100267561A1
